Where a SMILES comes first, the peptide text is derived from it.
ASSAY READOUT: Ki
Numeric answer plus unit only.

Query: State recorded Ki with 14-3-3σ (Homo sapiens, UniProt P31947), entry CC(=O)N[C@@H](CCCNC(=N)N)C(=O)N1CCC[C@H]1C(=O)N[C@@H](CCCNC(=N)N)C(=O)N[C@@H](CO)C(=O)N[C@@H](CS)C(=O)N[C@H](C(=O)N[C@@H](Cc1c[nH]c2ccccc12)C(=O)N1CCC[C@H]1C(=O)N[C@@H](CC(C)C)C(=O)N1CCC[C@H]1C(=O)N[C@@H](CCCNC(=N)N)C(N)=O)[C@@H](C)OP(=O)(O)O [FOXO1, Ac-RPRSC{pT}WPLPR-CONH2] (HELM PEPTIDE1{[ac].R.P.R.S.C.[C[C@@H](OP(=O)(O)O)[C@H](N[*:1])C(=O)[*:2]].W.P.L.P.R.[am]}$$$$V2.0) , no comment.
Sequence (P31947 1-231 limits assumed): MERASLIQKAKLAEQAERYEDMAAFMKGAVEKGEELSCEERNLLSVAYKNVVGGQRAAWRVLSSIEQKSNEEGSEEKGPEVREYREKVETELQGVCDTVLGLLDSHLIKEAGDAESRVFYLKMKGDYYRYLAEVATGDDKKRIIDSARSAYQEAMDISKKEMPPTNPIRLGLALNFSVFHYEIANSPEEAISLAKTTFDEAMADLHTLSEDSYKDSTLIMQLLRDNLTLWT
Reply: 0.396 µM

Query: Report value: Ki, system: 14-3-3σ (Homo sapiens, UniProt P31947), compound: CC(=O)N1CCC[C@H]1C(=O)N[C@@H](CCCNC(=N)N)C(=O)N[C@@H](CCCNC(=N)N)C(=O)N[C@@H](CCCNC(=N)N)C(=O)N1CCC[C@H]1C(=O)N[C@@H](CCC(=O)O)C(=O)N[C@@H](COP(=O)(O)O)C(=O)N[C@@H](C)C(=O)N1CCC[C@H]1C(=O)N[C@@H](C)C(=O)N[C@@H](CCC(=O)O)C(=O)N[C@@H](CO)C(=O)N[C@@H](CO)C(N)=O [SOS1, Ac-PRRRPE{pS}APAESS-CONH2] (HELM PEPTIDE1{[ac].P.R.R.R.P.E.[O=C([C@H](COP(=O)(O)O)N[*:1])[*:2]].A.P.A.E.S.S.[am]}$$$$V2.0)
Reply: 3.66 µM

Query: # assay system 14-3-3σ (Homo sapiens, UniProt P31947): give Ki of CC[C@H](C)[C@H](NC(=O)[C@H](CC(=O)O)NC(=O)[C@@H]1CCCN1C(=O)[C@H](CO)NC(=O)[C@H](COP(=O)(O)O)NC(=O)[C@H](Cc1ccc(O)cc1)NC(=O)[C@H](CO)NC(=O)[C@H](CCCNC(=N)N)NC(=O)[C@H](CCCCN)NC(=O)[C@H](CC(C)C)NC(=O)[C@H](CCCCN)NC(C)=O)C(=O)N[C@H](C(=O)N[C@@H](CCC(N)=O)C(N)=O)[C@@H](C)O [USP8, Ac-KLKRSY{pS}SPDITQ-CONH2] (HELM PEPTIDE1{[ac].K.L.K.R.S.Y.[O=C([C@H](COP(=O)(O)O)N[*:1])[*:2]].S.P.D.I.T.Q.[am]}$$$$V2.0)
Reply: 14.3 µM

Query: # lookup: 14-3-3σ (Homo sapiens, UniProt P31947) Ki, key = CC(=O)N[C@@H](CCCNC(=N)N)C(=O)N[C@@H](CCC(N)=O)C(=O)N[C@@H](CCCNC(=N)N)C(=O)N[C@@H](CO)C(=O)N[C@H](C(=O)N[C@@H](COP(=O)(O)O)C(=O)N[C@H](C(=O)N1CCC[C@H]1C(=O)N[C@@H](CC(N)=O)C(=O)N[C@H](C(=O)N[C@@H](Cc1c[nH]cn1)C(N)=O)C(C)C)[C@@H](C)O)[C@@H](C)O [C-RAF, Ac-RQRST{pS}TPNVH-CONH2] (HELM PEPTIDE1{[ac].R.Q.R.S.T.[O=C([C@H](COP(=O)(O)O)N[*:1])[*:2]].T.P.N.V.H.[am]}$$$$V2.0)
Reply: 9.5 µM
